Test: qHTS Screen of the MIPE 4.0 Collection Against Ewings Sarcoma (TC71) (AID 1259253); note: nearly all actives have a fitted effect of over 40% in size
Settings: TC71 Ewing sarcoma viability, CellTiter-Glo, 48 h; series mostly up to 45.8 µM
Results filed as inconclusive are left out. Calls of active or inactive are those of the source. Calls come from the whole dose curve; as a rule, active = well fitted inhibition curve with a large enough effect; inconclusive = small, poorly fitted or top-dose-only effect; inactive = no such curve, though single readings can be large or run the other way.
Outcome codes: active, inactive

molecule	classification
COc1ccc2cc3[n+](cc2c1OC)CCc1cc2c(cc1-3)OCO2	active
CO[C@@H]1[C@@H](OC(N)=O)[C@@H](O)[C@H](Oc2ccc3c(O)c(NC(=O)c4ccc(O)c(CC=C(C)C)c4)c(=O)oc3c2C)OC1(C)C	active
CC(C)C1CCC(C(=O)N[C@H](Cc2ccccc2)C(=O)O)CC1 (some centres undefined)	inactive
C[C@@H]1C[C@H]2[C@@H]3CCC4=CC(=O)C=C[C@]4(C)[C@@]3(Cl)[C@@H](O)C[C@]2(C)[C@@]1(OC(=O)c1ccco1)C(=O)CCl	active

* * *

Experiment: Quantitative High-Throughput drug screen in 47 multiple myeloma cell lines against the NCATS MIPE library collection: MMM1_PLB cell viability assay (AID 1918976); note: nearly all actives have a fitted effect of over 35% in size
Conditions: MMM1 myeloma cells viability, CellTiter-Glo, 48 h; series mostly up to 45.8 µM
Results filed as inconclusive are left out. The source made the active and inactive calls. The call rests on the fitted dose curve; in most records, active means well fitted cell-killing curve with a large enough effect; inconclusive means small, poorly fitted or top-dose-only effect, or effect the other way; inactive means no such curve, though single readings can be large or run the other way.
Outcome codes: yes (1) (active), no (0) (inactive)

molecule	classification
Cn1c(=O)c2c(ncn2CC(O)CO)n(C)c1=O (stereo not drawn)	no (0)
CCCCOc1ccc(CC(=O)NO)cc1	yes (1)
COc1cc(NCc2ccc3nc(N)nc(N)c3c2C)cc(OC)c1OC	yes (1)
CCc1c2c(nc3ccc(OC(=O)N4CCC(N5CCCCC5)CC4)cc13)-c1cc3c(c(=O)n1C2)COC(=O)[C@]3(O)CC	yes (1)
Cc1nnc(C(=O)NC(C)(C)c2nc(C(=O)NCc3ccc(F)cc3)c(O)c(=O)n2C)o1	yes (1)
COc1cc2nc(N3CCCN(C)CC3)nc(NC3CCN(Cc4ccccc4)CC3)c2cc1OC	yes (1)
CN(C)c1ccc(C(=C2C=CC(=[N+](C)C)C=C2)c2ccc(N(C)C)cc2)cc1	yes (1)
CNNCc1ccc(C(=O)NC(C)C)cc1	yes (1)

* * *

Tested on: MKL-2
Assay: qHTS assay to identify novel small-molecules to repurpose for Merkel cell carcinoma treatment (AID 1296009); note: nearly all actives have a fitted effect of over 60% in size
Conditions: MCC and control cell lines, CellTiter-Glo viability, 72 h; series mostly up to 46 µM
Records with an inconclusive call do not appear. Calls of active or inactive are those of the source. Calls come from the whole dose curve; as a rule, active = well fitted inhibition curve with a large enough effect; inconclusive = small, poorly fitted or top-dose-only effect; inactive = flat fitted curve, though single readings scatter.
Possible outcomes: Yes (active), No (inactive)

molecule	classification
Nc1nc(N)nc(-c2cc(Cl)ccc2Cl)n1	No
COc1ncnc(NS(=O)(=O)c2ccc(N)cc2)c1OC	No
COc1cc2ncnc(Nc3cccc(Cl)c3)c2cc1OC	No
Cc1ccnc2c1NC(=O)c1cccnc1N2C1CC1	No
COc1c(N2CCNC(C)C2)c(F)cc2c(=O)c(C(=O)O)cn(C3CC3)c12 (configuration not stated)	No
CCn1cc(C(=O)O)c(=O)c2cc(F)c(N3CCNCC3)nc21	No
COc1cc([C@@H]2c3cc4c(cc3[C@H](O)[C@H]3COC(=O)[C@H]23)OCO4)cc(OC)c1OC	Yes
COc1cnc(NS(=O)(=O)c2ccc(N)cc2)nc1	No
CCOc1cc(N)c(Cl)cc1C(=O)NCC1CN(Cc2ccc(F)cc2)CCO1 (configuration not stated)	No
CCCOc1ccc(C(=O)OCCN(CC)CC)cc1N	No
C#CCN[C@@H]1CCc2ccccc21	No
S=P(N1CC1)(N1CC1)N1CC1	No

* * *

Tested on: Zika virus NS2B-NS3 protease (linked construct)
Test: Confirmatory screen NINDS AMC qHTS for Zika virus inhibitors (AID 1347152); note: nearly all actives have a fitted effect of over 70% in size
Details: Purified linked NS2B-NS3, AMC substrate fluorescence; series mostly up to 56.6 µM
Records with an inconclusive call do not appear. Calls of active or inactive are those of the source. Calls come from the whole dose curve; as a rule, active = well fitted inhibition curve with a large enough effect; inconclusive = small, poorly fitted or top-dose-only effect; inactive = flat fitted curve, though single readings scatter.
Classes used: active, inactive

compound	tgt	classification
COc1cc(NCc2ccc3nc(N)nc(N)c3c2C)cc(OC)c1OC	Zika virus NS2B-NS3 protease (linked construct)	active
O=C(O)c1cn(C2CC2)c2cc(N3CCNCC3)c(F)cc2c1=O	Zika virus NS2B-NS3 protease (linked construct)	active
CCCc1nc(C)c2c(=O)[nH]c(-c3cc(S(=O)(=O)N4CCN(CC)CC4)ccc3OCC)nn12	Zika virus NS2B-NS3 protease (linked construct)	inactive
CCn1cc(C(=O)O)c(=O)c2cc(F)c(N3CCNCC3)cc21	Zika virus NS2B-NS3 protease (linked construct)	active
CNC1CCCN(c2c(F)cc3c(=O)c(C(=O)O)cn(C4CC4)c3c2OC)C1 (stereo unspecified)	Zika virus NS2B-NS3 protease (linked construct)	active
OCc1ccc(-c2nn(Cc3ccccc3)c3ccccc23)o1	Zika virus NS2B-NS3 protease (linked construct)	active

* * *

Tested on: CP185
Assay: qHTS profiling for inhibitors of Plasmodium falciparum proliferation (AID 504749); note: nearly all actives have a fitted effect of over 60% in size
Settings: P. falciparum in erythrocytes, SYBR Green DNA, 72 h; series mostly up to 28.7 µM
Results filed as inconclusive are left out. The source made the active and inactive calls. Calls come from the whole dose curve; as a rule, active = well fitted inhibition curve with a large enough effect; inconclusive = small, poorly fitted or top-dose-only effect; inactive = flat fitted curve, though single readings scatter.
Possible outcomes: YES = active, NO = inactive

test_smiles	classification
Nc1nc(N)nc(-c2cc(Cl)ccc2Cl)n1	NO
CNNCc1ccc(C(=O)NC(C)C)cc1	NO
O=c1oc2c(O)c(O)cc3c(=O)oc4c(O)c(O)cc1c4c23	NO
NC(=O)c1cccnc1	NO
Cn1nnc2c(C(N)=O)ncn2c1=O	NO
COc1ccc(C(=O)CC(=O)c2ccc(C(C)(C)C)cc2)cc1	NO
COc1cccc(N(C)C(=S)Oc2ccc3c(c2)CCCC3)n1	NO
CCn1cc(C(=O)O)c(=O)c2cc(F)c(N3CCNCC3)nc21	NO
Nc1[nH]c(=O)ncc1F	NO
CC(C)(Sc1cc(C(C)(C)C)c(O)c(C(C)(C)C)c1)Sc1cc(C(C)(C)C)c(O)c(C(C)(C)C)c1	NO
COc1cc2c(Nc3ccc(Br)cc3F)ncnc2cc1OCC1CCN(C)CC1	YES
S=P(N1CC1)(N1CC1)N1CC1	NO
CCc1c2c(nc3ccc(OC(=O)N4CCC(N5CCCCC5)CC4)cc13)-c1cc3c(c(=O)n1C2)COC(=O)[C@]3(O)CC	NO
CN1CCN(c2c(F)cc3c(=O)c(C(=O)O)cn(CCF)c3c2F)CC1	NO
CC(C)(C#N)c1cc(Cn2cncn2)cc(C(C)(C)C#N)c1	NO
CC(=O)Oc1ccccc1C(=O)Nc1ncc([N+](=O)[O-])s1	NO
Cc1cccc(Nc2ccncc2S(=O)(=O)NC(=O)NC(C)C)c1	NO
CC1=NN(c2ccccc2)C(=O)C1	NO
Cc1nnc(NS(=O)(=O)c2ccc(N)cc2)s1	NO
Nc1ccc(S(=O)(=O)Nc2ccccn2)cc1	NO
CCOC(=O)[C@H](CCc1ccccc1)N[C@H]1CS[C@H](c2cccs2)CN(CC(=O)O)C1=O	NO
Oc1c(Cl)cc(Cl)c2cccnc12	YES
COc1cc(NCc2ccc3nc(N)nc(N)c3c2C)cc(OC)c1OC	YES
Cc1noc(NS(=O)(=O)c2ccc(N)cc2)c1C	NO
CCOC(=O)c1ccc(OC(=O)CCCCCN=C(N)N)cc1	NO

* * *

System: HaCat
Assay: Cytotoxic Profiling of Annotated Libraries Using Quantitative High-Throughput Screening (AID 1296008); note: % is set by controls: 0 for no effect and ±100 for the full control effect; nearly all actives have a fitted effect of over 60% in size
Conditions: Five cell lines viability, CellTiter-Glo ATP luminescence, 48-72 h; active compounds read low
Inconclusive results are not listed.

compound	tgt	max response, %
CCn1cc(C(=O)O)c(=O)c2cc(F)c(N3CCNCC3)cc21	HaCat	-20
O=C(O)c1ccc(-n2nc(-c3ccccc3O)nc2-c2ccccc2O)cc1	HaCat	2.92
CCc1cc(C(N)=S)ccn1	HaCat	-10.8
CC1=NN(c2ccccc2)C(=O)C1	HaCat	-6.55
Nc1nc(N)c2nc(CNc3ccc(C(=O)NC(CCC(=O)O)C(=O)O)cc3)cnc2n1 (stereo unspecified)	HaCat	4.29
O=C(O)c1cc(=O)[nH]c(=O)[nH]1	HaCat	-18

* * *

Assay: Quantitative High-Throughput drug screen in 47 multiple myeloma cell lines against the NCATS MIPE library collection: Karpas25_ECACC cell viability assay (AID 1918968; note: nearly all actives have a fitted effect of over 35% in size; note: potency is the fitted concentration of half-maximal effect)
Details: Karpas25 myeloma viability, CellTiter-Glo ATP, 48 h; series mostly up to 45.8 µM
Records with an inconclusive call do not appear. The source made the active and inactive calls. The call rests on the fitted dose curve; in most records, active means well fitted cell-killing curve with a large enough effect; inconclusive means small, poorly fitted or top-dose-only effect, or effect the other way; inactive means no such curve, though single readings can be large or run the other way.

compound	Potency
CCc1cc(C(N)=S)ccn1	inactive
O=c1oc2c(O)c(O)cc3c(=O)oc4c(O)c(O)cc1c4c23	inactive
CCc1c2c(nc3ccc(OC(=O)N4CCC(N5CCCCC5)CC4)cc13)-c1cc3c(c(=O)n1C2)COC(=O)[C@]3(O)CC	2640 nM (active)
COc1ccccc1OCC(O)COC(N)=O (stereo unspecified)	inactive
COc1ccc2cc3[n+](cc2c1OC)CCc1cc2c(cc1-3)OCO2	2640 nM (active)
O=c1cc(O)c(Cl)c[nH]1	inactive
OC(Cn1cncn1)(Cn1cncn1)c1ccc(F)cc1F	inactive
COc1nc(N)nc2c1ncn2[C@@H]1O[C@H](CO)[C@@H](O)[C@@H]1O	inactive
CO[C@@H]1[C@@H](OC(N)=O)[C@@H](O)[C@H](Oc2ccc3c(O)c(NC(=O)c4ccc(O)c(CC=C(C)C)c4)c(=O)oc3c2C)OC1(C)C	5900 nM (active)
CCOCC(O)COc1ccc(NC(=O)CC[S+](C)C)cc1 (stereo unspecified)	inactive
CCCCS(=N)(=O)CCC(N)C(=O)O (stereo unspecified)	inactive

# credit: PubChem BioAssay (NCATS)
